The values you see were collected from ChEMBL document CHEMBL1909046.

Molecular target: Cytochrome P450 3A4 (Homo sapiens); also: in other assays of this panel Not Active means under 50% inhibition at 10 µM
Sequence (P08684 whole entry): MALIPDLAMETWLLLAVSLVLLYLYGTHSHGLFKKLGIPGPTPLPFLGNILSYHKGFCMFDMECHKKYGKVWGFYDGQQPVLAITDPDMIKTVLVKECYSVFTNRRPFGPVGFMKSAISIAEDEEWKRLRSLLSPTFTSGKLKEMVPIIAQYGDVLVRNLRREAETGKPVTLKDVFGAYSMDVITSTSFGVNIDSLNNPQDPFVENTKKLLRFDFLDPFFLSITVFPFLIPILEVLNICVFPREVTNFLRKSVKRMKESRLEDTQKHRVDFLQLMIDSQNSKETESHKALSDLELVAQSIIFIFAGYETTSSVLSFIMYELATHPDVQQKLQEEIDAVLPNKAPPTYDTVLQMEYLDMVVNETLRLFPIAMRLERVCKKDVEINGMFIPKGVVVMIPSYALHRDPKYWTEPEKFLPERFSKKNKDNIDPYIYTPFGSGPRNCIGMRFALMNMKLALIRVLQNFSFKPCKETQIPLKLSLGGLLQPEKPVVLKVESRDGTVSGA
Settings: bti-tn-5b1-4
*1 amine or outer side, *2 acyl side, *3 side chain or, on linkers, in order; H or OH if unused. Where a SMILES comes first, the peptide text is derived from it. Bridges are numbered along the chain shown (N, C = ends). Roman numbers before positions name the chains, in order. [ ]: non-standard residue; d: D form. Actinocin(1to9) = Cc1c2oc3c(C)ccc(C(=O)[*:2])c3nc-2c(C(=O)[*:1])c(N)c1=O; NMeV = CN[C@H](C(=O)O)C(C)C; Sar = CNCC(=O)O

COMPOUND: Cc1c2oc3c(C)ccc(C(=O)N[C@@H]4C(=O)N[C@H](C(C)C)C(=O)N5CCC[C@H]5C(=O)N(C)CC(=O)N(C)[C@@H](C(C)C)C(=O)O[C@@H]4C)c3nc-2c(C(=O)N[C@@H]2C(=O)N[C@H](C(C)C)C(=O)N3CCC[C@H]3C(=O)N(C)CC(=O)N(C)[C@@H](C(C)C)C(=O)O[C@@H]2C)c(N)c1=O [DACTINOMYCIN] (I: T[dV]P[Sar][NMeV] / II: T[dV]P[Sar][NMeV]; ester I:1-I:C, II:1-II:C; linker I:N-II:N via Actinocin(1to9))
Ki: Not Active
//
COMPOUND: NC[C@H]1CC[C@H](C(=O)O)CC1 [TRANEXAMIC ACID]
Ki: Not Active
//
COMPOUND: CC1Cc2ccccc2N1NC(=O)c1ccc(Cl)c(S(N)(=O)=O)c1 (stereo unspecified) [INDAPAMIDE]
Ki: Not Active
//
COMPOUND: Cc1c(O)c(=O)ccn1C [DEFERIPRONE]
Ki: Not Active
//
COMPOUND: COCCc1ccc(OCC(O)CNC(C)C)cc1 (stereo unspecified) [METOPROLOL]
Ki: Not Active
//
COMPOUND: C1CCC(C(CC2CCCCN2)C2CCCCC2)CC1 (stereo unspecified) [PERHEXILINE]
Ki: Not Active
